Source listed as ChEMBL document CHEMBL1961873.

biological target: Tyrosine-protein kinase ZAP-70 (Homo sapiens) (UniProt P43403); conditions: at 1 µM
Sequence (P43403 whole entry): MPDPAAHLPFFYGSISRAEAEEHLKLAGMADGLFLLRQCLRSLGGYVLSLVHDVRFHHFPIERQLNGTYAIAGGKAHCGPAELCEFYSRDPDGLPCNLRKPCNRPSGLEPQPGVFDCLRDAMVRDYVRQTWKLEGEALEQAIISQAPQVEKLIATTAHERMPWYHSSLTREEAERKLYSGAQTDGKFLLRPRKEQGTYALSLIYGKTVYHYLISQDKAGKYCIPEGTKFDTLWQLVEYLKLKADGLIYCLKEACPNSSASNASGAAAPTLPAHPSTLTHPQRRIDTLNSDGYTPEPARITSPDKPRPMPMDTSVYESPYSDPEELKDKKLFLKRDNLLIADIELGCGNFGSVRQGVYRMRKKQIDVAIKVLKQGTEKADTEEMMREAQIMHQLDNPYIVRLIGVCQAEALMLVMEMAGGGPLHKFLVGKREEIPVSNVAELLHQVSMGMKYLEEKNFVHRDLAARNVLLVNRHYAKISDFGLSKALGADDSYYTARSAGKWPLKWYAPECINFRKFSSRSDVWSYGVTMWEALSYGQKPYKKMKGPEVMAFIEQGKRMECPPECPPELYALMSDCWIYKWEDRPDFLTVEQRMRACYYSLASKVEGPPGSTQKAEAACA
Description: GSK_PKIS: ZAP70 mean inhibition at 1 uM [Nanosyn]
measurementLabel: inhibition
Answer as a quantity: numeral, then unit.

NC(=O)c1sc(-n2cnc3cc(C(F)(F)F)ccc32)cc1OCc1ccccc1Br ... 1.87%
Cc1cc(-c2ccco2)cc(C)c1/C=C/c1cncc(-c2nn[nH]n2)c1 ... 0.77%
CCn1c(-c2nonc2N)nc2c(C#CCN)ncc(OCCCN)c21 ... 2.46%
CCn1c(-c2nonc2N)nc2c(C#CC(C)(C)O)ncc(OC[C@@H]3CCCN3)c21 ... -0.24%
NS(=O)(=O)c1ccc(N/C=C2\C(=O)Nc3ccc4ncsc4c32)cc1 ... 5.97%
COc1cccc(-n2ncc3c(N/N=C/c4ccncc4)ncnc32)c1 ... 3.98%
COc1cccc(COc2cc(-n3cnc4ccccc43)sc2C(N)=O)c1 ... 0.73%
COc1cc(C=NNc2ncnc3c2cnn3Cc2ccccc2)ccc1O ... 1.13%

Please look at the following compound next.
Tell me reported inhibition for Fc1ccc(-c2ncn(C3CCNCC3)c2-c2ccnc(Oc3ccccc3)n2)cc1 , tested with Tyrosine-protein kinase ZAP-70 (Homo sapiens) (UniProt P43403).
-3.08%

* * *

molecular target: MAP kinase-activated protein kinase 2 (Homo sapiens); conditions: at 1 µM;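 further: values are mean inhibition from the GSK PKIS screen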
measurementLabel: inhibition (%)
Numbers only, in %.

Previously resolved entries follow.
COc1cccc(COc2cc(-n3cnc4ccccc43)sc2C(N)=O)c1 ... -1.3
Nc1nonc1-c1nc2cnccc2n1C1CCCCC1 ... -1.08
CCn1c(-c2nonc2N)nc2c(C#CCN)ncc(OCCCN)c21 ... -0.87

// for each compound below, give its inhibition
1. CCn1c(-c2nonc2N)nc2c(C#CC(C)(C)O)ncc(OC[C@@H]3CCCN3)c21
2. NS(=O)(=O)c1ccc(-c2ccc3c(NC(=O)C4CC4)n[nH]c3c2)cc1
3. Fc1ccc(-c2ncn(C3CCNCC3)c2-c2ccnc(Oc3ccccc3)n2)cc1
4. COc1cc(C=NNc2ncnc3c2cnn3Cc2ccccc2)ccc1O

[-0.71, 0.96, -0.82, -2.27]

Tell me reported inhibition for COc1cccc(-n2ncc3c(N/N=C/c4ccncc4)ncnc32)c1 , tested with MAP kinase-activated protein kinase 2 (Homo sapiens).
1.87

* * *

target: Tyrosine-protein kinase Fgr (Homo sapiens) (UniProt P09769); settings: at 0.1 µM;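 further: reported values are mean percent inhibition of FGR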
Sequence (P09769 2-529 limits assumed): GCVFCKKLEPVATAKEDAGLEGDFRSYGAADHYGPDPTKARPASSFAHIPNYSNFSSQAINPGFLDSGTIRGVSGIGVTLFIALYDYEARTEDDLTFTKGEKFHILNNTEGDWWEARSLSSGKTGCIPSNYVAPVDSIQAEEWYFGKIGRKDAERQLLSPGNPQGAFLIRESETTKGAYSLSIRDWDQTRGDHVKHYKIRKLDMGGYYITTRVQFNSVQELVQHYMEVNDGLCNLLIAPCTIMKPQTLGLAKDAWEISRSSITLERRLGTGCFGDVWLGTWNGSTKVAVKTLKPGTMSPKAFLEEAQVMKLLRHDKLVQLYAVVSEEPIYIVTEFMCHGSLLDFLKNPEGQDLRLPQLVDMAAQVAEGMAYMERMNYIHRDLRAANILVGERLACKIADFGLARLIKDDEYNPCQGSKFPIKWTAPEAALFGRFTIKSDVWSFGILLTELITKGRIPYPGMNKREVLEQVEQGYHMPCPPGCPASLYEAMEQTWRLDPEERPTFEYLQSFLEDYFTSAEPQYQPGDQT
Label y when inhibition >= 5%; otherwise n.

Field: example entries. Status: answers known.
NS(=O)(=O)c1ccc(N/C=C2\C(=O)Nc3ccc4ncsc4c32)cc1 ... n
COc1cccc(COc2cc(-n3cnc4ccccc43)sc2C(N)=O)c1 ... n
COc1cccc(-n2ncc3c(N/N=C/c4ccncc4)ncnc32)c1 ... y

Check the entry COc1cc2c(cc1Nc1nc(Nc3ccsc3C(N)=O)c3cc[nH]c3n1)N(C(=O)CN(C)C)CCC2 : does inhibition equal or exceed 5%?
y

Entry CCn1c(-c2nonc2N)nc2c(C#CCN)ncc(OCCCN)c21 please
y

Entry NC(=O)c1sc(-n2cnc3cc(C(F)(F)F)ccc32)cc1OCc1ccccc1Br please
n

Entry Fc1ccc(-c2ncn(C3CCNCC3)c2-c2ccnc(Oc3ccccc3)n2)cc1 please
n

Entry CCn1c(-c2nonc2N)nc2c(C#CC(C)(C)O)ncc(OC[C@@H]3CCCN3)c21 please
n

Entry Cc1cc(-c2ccco2)cc(C)c1/C=C/c1cncc(-c2nn[nH]n2)c1 please
n

* * *

target: MAP kinase-interacting serine/threonine-protein kinase 2 (Homo sapiens) (UniProt Q9HBH9); conditions: at 1 µM
Sequence (Q9HBH9 whole entry, looked up): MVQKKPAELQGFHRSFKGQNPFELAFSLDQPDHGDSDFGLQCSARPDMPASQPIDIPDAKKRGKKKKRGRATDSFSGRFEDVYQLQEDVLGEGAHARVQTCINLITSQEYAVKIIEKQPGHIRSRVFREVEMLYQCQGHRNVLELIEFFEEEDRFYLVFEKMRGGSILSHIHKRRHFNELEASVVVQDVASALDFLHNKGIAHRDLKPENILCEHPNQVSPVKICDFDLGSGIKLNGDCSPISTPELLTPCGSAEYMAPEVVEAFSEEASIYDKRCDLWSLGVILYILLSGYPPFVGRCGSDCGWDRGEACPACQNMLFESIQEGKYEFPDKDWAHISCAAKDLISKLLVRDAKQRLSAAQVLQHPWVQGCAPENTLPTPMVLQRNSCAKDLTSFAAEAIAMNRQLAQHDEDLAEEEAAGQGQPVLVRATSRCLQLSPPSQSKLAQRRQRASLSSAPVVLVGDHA
Description: GSK_PKIS: MNK2 mean inhibition at 1 uM [Nanosyn]
measurementLabel: inhibition (%)
Numbers only, in %.

Previously resolved entries follow.
CCn1c(-c2nonc2N)nc2c(C#CC(C)(C)O)nc(O[C@@H](CN)c3ccccc3)cc21 ... 33.1
Cc1cc(-c2ccco2)cc(C)c1/C=C/c1cncc(-c2nn[nH]n2)c1 ... 35.2
COc1cccc(COc2cc(-n3cnc4ccccc43)sc2C(N)=O)c1 ... 6.31
CCn1c(-c2nonc2N)nc2c(C#CCN)ncc(OCCCN)c21 ... 10.2

// for each compound below, give its inhibition
1. Fc1ccc(-c2ncn(C3CCNCC3)c2-c2ccnc(Oc3ccccc3)n2)cc1
2. Nc1nonc1-c1nc2cnccc2n1C1CCCCC1
3. NS(=O)(=O)c1ccc(-c2ccc3c(NC(=O)C4CC4)n[nH]c3c2)cc1
4. CCn1c(-c2nonc2N)nc2c(C#CC(C)(C)O)ncc(OCC3CCNCC3)c21

1: 0.76; 2: 8.42; 3: 6.29; 4: 4.38

// for each compound below, give its inhibition
1. CCn1c(-c2nonc2N)nc2c(C#CC(C)(C)O)ncc(OC[C@@H]3CCCN3)c21
2. COc1cc(C=NNc2ncnc3c2cnn3Cc2ccccc2)ccc1O

1. -0.07
2. 1.29

* * *

molecular target: 3-phosphoinositide-dependent protein kinase 1 (Homo sapiens) (UniProt O15530); settings: at 0.1 µM;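 further: values are mean inhibition of PDK1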
Sequence (O15530 whole entry): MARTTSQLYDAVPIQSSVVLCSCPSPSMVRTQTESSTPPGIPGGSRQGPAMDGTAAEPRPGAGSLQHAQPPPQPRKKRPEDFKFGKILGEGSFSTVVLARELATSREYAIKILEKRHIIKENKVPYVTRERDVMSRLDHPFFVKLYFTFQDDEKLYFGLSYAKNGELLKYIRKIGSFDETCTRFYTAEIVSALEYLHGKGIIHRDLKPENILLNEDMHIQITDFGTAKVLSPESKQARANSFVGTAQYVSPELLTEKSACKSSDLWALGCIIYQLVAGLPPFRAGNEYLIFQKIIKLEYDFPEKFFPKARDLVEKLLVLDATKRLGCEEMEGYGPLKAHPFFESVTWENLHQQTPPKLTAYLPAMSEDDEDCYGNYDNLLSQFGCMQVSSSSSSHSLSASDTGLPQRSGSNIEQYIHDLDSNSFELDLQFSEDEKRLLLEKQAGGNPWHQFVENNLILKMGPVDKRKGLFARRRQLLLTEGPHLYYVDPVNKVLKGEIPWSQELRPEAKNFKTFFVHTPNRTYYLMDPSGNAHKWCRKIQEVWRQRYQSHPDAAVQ
measurementLabel: inhibition (%)
Numbers only, in %.

COc1cc(C=NNc2ncnc3c2cnn3Cc2ccccc2)ccc1O ... -3.37
COc1cc2c(cc1Nc1nc(Nc3ccsc3C(N)=O)c3cc[nH]c3n1)N(C(=O)CN(C)C)CCC2 ... 0.7
CCn1c(-c2nonc2N)nc2c(C#CC(C)(C)O)ncc(OCC3CCNCC3)c21 ... 2.18
COc1cccc(COc2cc(-n3cnc4ccccc43)sc2C(N)=O)c1 ... 12.1

Look up inhibition for this compound: CCn1c(-c2nonc2N)nc2c(C#CC(C)(C)O)ncc(OC[C@@H]3CCCN3)c21
0.24

* * *

biological target: Angiopoietin-1 receptor (Homo sapiens) (UniProt Q02763); conditions: at 0.1 µM
Sequence (Q02763 whole entry): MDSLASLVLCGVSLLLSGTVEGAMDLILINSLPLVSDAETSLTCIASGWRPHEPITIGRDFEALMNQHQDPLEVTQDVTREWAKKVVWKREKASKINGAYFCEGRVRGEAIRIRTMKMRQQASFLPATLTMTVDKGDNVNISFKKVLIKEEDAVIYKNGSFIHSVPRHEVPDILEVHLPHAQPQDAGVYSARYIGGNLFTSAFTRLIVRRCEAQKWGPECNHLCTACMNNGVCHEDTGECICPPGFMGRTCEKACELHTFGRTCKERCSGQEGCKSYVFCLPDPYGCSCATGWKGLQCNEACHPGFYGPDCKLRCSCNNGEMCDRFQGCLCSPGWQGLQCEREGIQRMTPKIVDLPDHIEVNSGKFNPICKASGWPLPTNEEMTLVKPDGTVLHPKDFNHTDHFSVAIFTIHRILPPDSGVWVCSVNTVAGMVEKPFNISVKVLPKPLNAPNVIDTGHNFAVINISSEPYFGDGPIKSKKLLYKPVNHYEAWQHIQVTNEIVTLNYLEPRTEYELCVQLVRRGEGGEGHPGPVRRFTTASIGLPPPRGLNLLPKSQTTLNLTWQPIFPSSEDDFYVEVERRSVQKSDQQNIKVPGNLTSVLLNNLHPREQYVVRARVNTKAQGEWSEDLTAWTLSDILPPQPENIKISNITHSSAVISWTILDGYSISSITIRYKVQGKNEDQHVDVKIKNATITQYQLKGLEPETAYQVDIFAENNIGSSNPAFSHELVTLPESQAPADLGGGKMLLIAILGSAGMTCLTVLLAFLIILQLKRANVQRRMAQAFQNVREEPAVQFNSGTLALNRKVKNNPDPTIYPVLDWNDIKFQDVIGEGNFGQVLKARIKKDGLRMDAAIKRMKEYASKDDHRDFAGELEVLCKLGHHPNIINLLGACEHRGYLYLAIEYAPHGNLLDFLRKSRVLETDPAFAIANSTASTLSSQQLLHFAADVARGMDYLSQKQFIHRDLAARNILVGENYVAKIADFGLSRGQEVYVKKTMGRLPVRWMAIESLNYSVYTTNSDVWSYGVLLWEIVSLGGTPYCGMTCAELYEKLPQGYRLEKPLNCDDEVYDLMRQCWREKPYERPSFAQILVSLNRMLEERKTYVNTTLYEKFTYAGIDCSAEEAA
Description: GSK_PKIS: TIE2 mean inhibition at 0.1 uM [Nanosyn]
Record form. Attribute: inhibition. Fill in for each entry.
Answers are plain numbers, in %.

Nc1nonc1-c1nc2cnccc2n1C1CCCCC1 ... 1.78

// for each compound below, give its inhibition
1. CCn1c(-c2nonc2N)nc2c(C#CCN)ncc(OCCCN)c21
2. COc1cc2c(cc1Nc1nc(Nc3ccsc3C(N)=O)c3cc[nH]c3n1)N(C(=O)CN(C)C)CCC2
3. CCn1c(-c2nonc2N)nc2c(C#CC(C)(C)O)nc(O[C@@H](CN)c3ccccc3)cc21

1: 0.84; 2: 6.04; 3: 2.63

// for each compound below, give its inhibition
1. CCn1c(-c2nonc2N)nc2c(C#CC(C)(C)O)ncc(OC[C@@H]3CCCN3)c21
2. Cc1cc(-c2ccco2)cc(C)c1/C=C/c1cncc(-c2nn[nH]n2)c1
3. NS(=O)(=O)c1ccc(N/C=C2\C(=O)Nc3ccc4ncsc4c32)cc1

-0.35
2.4
0.38

// for each compound below, give its inhibition
1. NC(=O)c1sc(-n2cnc3cc(C(F)(F)F)ccc32)cc1OCc1ccccc1Br
2. CCn1c(-c2nonc2N)nc2c(C#CC(C)(C)O)ncc(OCC3CCNCC3)c21
3. Fc1ccc(-c2ncn(C3CCNCC3)c2-c2ccnc(Oc3ccccc3)n2)cc1

[2.07, 0.65, -0.49]

// for each compound below, give its inhibition
1. COc1cc(C=NNc2ncnc3c2cnn3Cc2ccccc2)ccc1O
2. COc1cccc(-n2ncc3c(N/N=C/c4ccncc4)ncnc32)c1

1: 3.65; 2: 6.02

* * *

target: Serine/threonine-protein kinase SIK1 (Homo sapiens) (UniProt P57059); details: at 0.1 µM;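 further: reported as mean inhibition, part of the GSK PKIS screen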
Sequence (P57059 whole entry): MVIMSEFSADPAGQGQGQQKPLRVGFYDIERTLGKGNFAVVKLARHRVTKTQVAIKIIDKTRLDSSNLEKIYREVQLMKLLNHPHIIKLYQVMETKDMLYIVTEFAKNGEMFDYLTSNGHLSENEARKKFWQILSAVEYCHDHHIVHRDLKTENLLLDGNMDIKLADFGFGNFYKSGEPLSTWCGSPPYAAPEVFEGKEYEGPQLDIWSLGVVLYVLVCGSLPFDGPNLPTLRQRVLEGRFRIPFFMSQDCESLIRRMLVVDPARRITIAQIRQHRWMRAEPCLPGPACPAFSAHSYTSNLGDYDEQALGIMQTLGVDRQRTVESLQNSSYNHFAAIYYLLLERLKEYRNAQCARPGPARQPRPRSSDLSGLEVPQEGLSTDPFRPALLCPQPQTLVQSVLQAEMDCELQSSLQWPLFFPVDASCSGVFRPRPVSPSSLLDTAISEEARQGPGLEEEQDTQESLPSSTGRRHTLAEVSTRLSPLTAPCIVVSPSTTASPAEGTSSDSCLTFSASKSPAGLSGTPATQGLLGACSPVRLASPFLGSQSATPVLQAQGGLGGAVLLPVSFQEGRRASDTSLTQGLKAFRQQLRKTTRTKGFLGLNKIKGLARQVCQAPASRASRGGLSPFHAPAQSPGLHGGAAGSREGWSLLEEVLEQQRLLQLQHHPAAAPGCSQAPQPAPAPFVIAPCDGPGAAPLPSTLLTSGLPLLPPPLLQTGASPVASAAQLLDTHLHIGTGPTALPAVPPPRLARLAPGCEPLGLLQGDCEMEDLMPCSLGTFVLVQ
Record form. Attribute: inhibition. Fill in for each entry.
Answers are plain numbers, in %.

Previously resolved entries follow.
CCn1c(-c2nonc2N)nc2c(C#CC(C)(C)O)ncc(OC[C@@H]3CCCN3)c21 ... 1.03
NS(=O)(=O)c1ccc(-c2ccc3c(NC(=O)C4CC4)n[nH]c3c2)cc1 ... 5.15
CCn1c(-c2nonc2N)nc2c(C#CCN)ncc(OCCCN)c21 ... -4.16
NC(=O)c1sc(-n2cnc3cc(C(F)(F)F)ccc32)cc1OCc1ccccc1Br ... 6.45
COc1cccc(COc2cc(-n3cnc4ccccc43)sc2C(N)=O)c1 ... -0.86
COc1cc2c(cc1Nc1nc(Nc3ccsc3C(N)=O)c3cc[nH]c3n1)N(C(=O)CN(C)C)CCC2 ... -0.68
Cc1cc(-c2ccco2)cc(C)c1/C=C/c1cncc(-c2nn[nH]n2)c1 ... -0.49
NS(=O)(=O)c1ccc(N/C=C2\C(=O)Nc3ccc4ncsc4c32)cc1 ... 2.12

// for each molecule below, give its inhibition
1. Nc1nonc1-c1nc2cnccc2n1C1CCCCC1
2. CCn1c(-c2nonc2N)nc2c(C#CC(C)(C)O)nc(O[C@@H](CN)c3ccccc3)cc21
3. CCn1c(-c2nonc2N)nc2c(C#CC(C)(C)O)ncc(OCC3CCNCC3)c21

[-4.72, -0.97, 4.3]

* * *

target: Dual specificity mitogen-activated protein kinase kinase 1 (Homo sapiens) (UniProt Q02750); details: at 1 µM;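 further: values reported are mean inhibition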
Sequence (Q02750 whole entry): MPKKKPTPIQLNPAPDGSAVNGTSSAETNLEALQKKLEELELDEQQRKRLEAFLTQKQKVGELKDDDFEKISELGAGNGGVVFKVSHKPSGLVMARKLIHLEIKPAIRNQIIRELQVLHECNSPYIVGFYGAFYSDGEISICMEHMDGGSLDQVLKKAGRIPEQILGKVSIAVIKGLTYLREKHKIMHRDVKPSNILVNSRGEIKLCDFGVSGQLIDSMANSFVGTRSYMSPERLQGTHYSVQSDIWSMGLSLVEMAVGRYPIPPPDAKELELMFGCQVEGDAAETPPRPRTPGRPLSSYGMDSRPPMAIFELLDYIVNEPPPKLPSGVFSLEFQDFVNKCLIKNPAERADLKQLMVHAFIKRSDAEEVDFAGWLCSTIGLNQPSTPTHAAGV
measurementLabel: inhibition (%)
One number for each entry, in %.

Previously resolved entries follow.
CCn1c(-c2nonc2N)nc2c(C#CC(C)(C)O)ncc(OCC3CCNCC3)c21 ... 4.1
COc1cccc(-n2ncc3c(N/N=C/c4ccncc4)ncnc32)c1 ... 7.23
NS(=O)(=O)c1ccc(N/C=C2\C(=O)Nc3ccc4ncsc4c32)cc1 ... 42.9
COc1cc2c(cc1Nc1nc(Nc3ccsc3C(N)=O)c3cc[nH]c3n1)N(C(=O)CN(C)C)CCC2 ... -5.54

Please look at the following molecule next.
Look up inhibition for this molecule: CCn1c(-c2nonc2N)nc2c(C#CC(C)(C)O)nc(O[C@@H](CN)c3ccccc3)cc21
6.28
